Attribution: paper PMC9246869

- assayed_system: PPM1D1–420 (Homo sapiens, UniProt O15297)
- Construct: PPM1D1–420 was PCR-amplified from the synthesized gene with BsaI sites; His(6)-SUMO (N, cleaved yes); made in house; host or cells: E. coli BL21 (DE3)
- Sequence (O15297 1-420): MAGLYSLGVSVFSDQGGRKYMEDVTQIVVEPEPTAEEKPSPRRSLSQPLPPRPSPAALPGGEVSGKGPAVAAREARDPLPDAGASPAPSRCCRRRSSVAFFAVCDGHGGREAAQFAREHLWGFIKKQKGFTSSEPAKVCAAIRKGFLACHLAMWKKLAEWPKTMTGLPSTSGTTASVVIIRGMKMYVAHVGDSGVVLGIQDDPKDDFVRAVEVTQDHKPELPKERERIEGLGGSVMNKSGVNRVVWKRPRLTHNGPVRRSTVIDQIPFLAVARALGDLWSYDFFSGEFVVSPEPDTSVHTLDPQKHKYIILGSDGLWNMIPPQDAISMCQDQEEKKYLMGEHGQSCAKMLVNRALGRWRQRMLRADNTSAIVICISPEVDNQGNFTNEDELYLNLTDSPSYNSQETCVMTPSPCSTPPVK
- experiment_description: FDP (fluorescein diphosphate) enzymatic assay
- Format: biochemical
- run_conditions: PPM1D1–420; compound pre-incubated 1 h
readout_name: IC50

## Input Can you share its IC50? I mean this molecule: Cc1ncc(Cl)cc1NCc1ccc(C(=O)N[C@@H](CC2CCCC2)C(=O)NC2CC2)s1 [GSK2830371]
## Output ~6 nM
